Where do the numbers come from? From ChEMBL document CHEMBL4190240.

# Test system: HeLa
# protocol.notes: Cytotoxicity against human HeLa cells assessed as cell growth inhibition after 48 hrs by MTT assay
# Format: functional, cell-based
# note: boundary value 2 µM maps to F; IC50 below it maps to T

Check if IC50 falls below 2 µM for COc1cc(-c2nc3cc(/C=C4\SC(=O)N(CC(=O)c5ccccc5)C4=O)ccc3[nH]2)cc(OC)c1OC .
F

Lab note: IC50 threshold 2 µM. Does this compound come in strictly under it? COc1cc(-c2nc3cc(/C=C4\SC(=O)NC4=O)ccc3[nH]2)cc(OC)c1OC
T

Take the compound COc1cc(-c2nc3cc(/C=C4\SC(=O)NC4=O)ccc3[nH]2)ccc1OCC(C)C and say whether its IC50 is less than 2 µM.
F

Please state whether IC50 is below 2 µM for COc1ccc(-c2nc3cc(/C=C4\SC(=O)NC4=O)ccc3[nH]2)cc1OC
F

Strictly below 2 µM: is that where IC50 of COc1cc(-c2nc3cc(/C=C4\SC(=O)N(Cc5cc(OC)c(OC)c(OC)c5)C4=O)ccc3[nH]2)ccc1OCC(C)C sits?
T

Bench note: check whether COc1cc(OC)c(-c2nc3cc(/C=C4\SC(=O)NC4=O)ccc3[nH]2)cc1OC shows IC50 below 2 µM
F

Lab log: compare recorded IC50 with 2 µM; is it strictly lower for COc1cc(OC)c(-c2nc3cc(/C=C4\SC(=O)N(Cc5cccc(C)c5)C4=O)ccc3[nH]2)cc1OC ?
T

Is it true that IC50 reported for COc1cc(OC)c(-c2nc3cc(/C=C4\SC(=O)N(CC(=O)N5CCOCC5)C4=O)ccc3[nH]2)cc1OC is less than 2 µM?
T

Please let me know if COc1cc(-c2nc3cc(/C=C4\SC(=O)N(CC(=O)N5CCOCC5)C4=O)ccc3[nH]2)cc(OC)c1OC shows IC50 below 2 µM.
F

Problem: For the compound COc1cc(-c2nc3cc(/C=C4\SC(=O)N(CC(=O)N5CCCCC5)C4=O)ccc3[nH]2)cc(OC)c1OC , is IC50 under 2 µM?
F

For this compound, is IC50 lower than 2 µM? COc1cc(CN2C(=O)S/C(=C\c3ccc4[nH]c(-c5cc(OC)c(OC)c(OC)c5)nc4c3)C2=O)cc(OC)c1OC
F

Please indicate whether the reported IC50 of COc1cc(-c2nc3cc(/C=C4\SC(=O)N(Cc5cccc(C)c5)C4=O)ccc3[nH]2)cc(OC)c1OC is strictly below 2 µM.
T

In plain terms, does COc1cc(OC)c(-c2nc3cc(/C=C4\SC(=O)N(CC(=O)N5CCCCC5)C4=O)ccc3[nH]2)cc1OC come in under 2 µM for IC50?
F

Here's an entry: COc1cc(-c2nc3cc(/C=C4\SC(=O)N(Cc5ccccc5)C4=O)ccc3[nH]2)cc(OC)c1OC . Is its IC50 below 2 µM?
T

I wonder whether COc1ccc(-c2nc3cc(/C=C4\SC(=O)N(Cc5cc(OC)c(OC)c(OC)c5)C4=O)ccc3[nH]2)cc1OC has IC50 below 2 µM. Can you tell?
T

A record lists COc1cc(-c2nc3cc(/C=C4\SC(=O)N(CC(=O)N5CCCC5)C4=O)ccc3[nH]2)cc(OC)c1OC . Is its IC50 below 2 µM?
F

Find out if reported IC50 for COc1ccc(-c2nc3cc(/C=C4\SC(=O)N(CC(=O)N5CCOCC5)C4=O)ccc3[nH]2)cc1OC is less than 2 µM
F

Lab log: compare recorded IC50 with 2 µM; is it strictly lower for COc1ccc(-c2nc3cc(/C=C4\SC(=O)N(CC(=O)c5ccccc5)C4=O)ccc3[nH]2)cc1OC ?
F

----------
# protocol.notes: Selectivity index, ratio of IC50 for HEK293T cells to IC50 for human HT1080 cells
# Format: toxicity
# conditions.used: HEK293T cells versus HT1080 cells, read-out: Ratio IC50
What selectivity ratio was measured for each of the following?
Number only, please.

The compound COc1ccc(-c2nc3cc(/C=C4\SC(=O)N(Cc5cc(OC)c(OC)c(OC)c5)C4=O)ccc3[nH]2)cc1OC showed selectivity ratio equal to 25.3

Field selectivity ratio (entry COc1cc(OC)c(-c2nc3cc(/C=C4\SC(=O)N(Cc5cccc(C)c5)C4=O)ccc3[nH]2)cc1OC ) reads 17.6

Summary for this compound, COc1cc(-c2nc3cc(/C=C4\SC(=O)N(Cc5cc(OC)c(OC)c(OC)c5)C4=O)ccc3[nH]2)ccc1OCC(C)C : selectivity ratio is 41.6

----------
# Test system: MDA-MB-231
# protocol.notes: Cytotoxicity against human MDA-MB-231 cells assessed as cell growth inhibition after 48 hrs by MTT assay
# Type: functional, cell-based
# conditions.used: MDA-MB-231, 48 h
Please go through the items and note down their IC50.
Number in µM, nothing else.

Given item COc1cc(-c2nc3cc(/C=C4\SC(=O)N(CC(=O)N5CCOCC5)C4=O)ccc3[nH]2)cc(OC)c1OC , the value recorded as its IC50 is 14.9

get_value(item= COc1cc(-c2nc3cc(/C=C4\SC(=O)N(Cc5cc(OC)c(OC)c(OC)c5)C4=O)ccc3[nH]2)ccc1OCC(C)C , readout=IC50) returns 4.37

The compound listed as COc1ccc(-c2nc3cc(/C=C4\SC(=O)N(CC(=O)c5ccccc5)C4=O)ccc3[nH]2)cc1OC has a reported IC50 of 2.04

COc1cc(-c2nc3cc(/C=C4\SC(=O)N(CC(=O)N5CCCCC5)C4=O)ccc3[nH]2)cc(OC)c1OC has a reported IC50 of 34.9

----------
# protocol.notes: Selectivity index, ratio of IC50 for HEK293T cells to IC50 for human PC3 cells
# Assay type: toxicity
# conditions.used: HEK293T cells versus PC3 cells, read-out: Ratio IC50
Can you tell me selectivity ratio for the items I'm about to list?
I only need the number, thanks.

Form field selectivity ratio, entry COc1cc(-c2nc3cc(/C=C4\SC(=O)N(Cc5cc(OC)c(OC)c(OC)c5)C4=O)ccc3[nH]2)ccc1OCC(C)C : 60.5

selectivity ratio measured on COc1cc(OC)c(-c2nc3cc(/C=C4\SC(=O)N(Cc5cccc(C)c5)C4=O)ccc3[nH]2)cc1OC = 5.3

----------
Assignment: determine reported selectivity ratio for the given molecules.
# protocol.notes: Selectivity index, ratio of IC50 for HEK293T cells to IC50 for human A549 cells
# Type: toxicity
# conditions.used: HEK293T cells versus A549 cells, read-out: Ratio IC50

For record COc1ccc(-c2nc3cc(/C=C4\SC(=O)N(Cc5cc(OC)c(OC)c(OC)c5)C4=O)ccc3[nH]2)cc1OC the listed selectivity ratio is 52

Value of selectivity ratio reported for the molecule COc1cc(-c2nc3cc(/C=C4\SC(=O)N(Cc5cc(OC)c(OC)c(OC)c5)C4=O)ccc3[nH]2)ccc1OCC(C)C is 69.3

selectivity ratio reported for this molecule COc1cc(OC)c(-c2nc3cc(/C=C4\SC(=O)N(Cc5cccc(C)c5)C4=O)ccc3[nH]2)cc1OC : 25.8

----------
# System: MDA-MB-231
# protocol.notes: Cytotoxicity against human MDA-MB-231 cells assessed as cell growth inhibition after 48 hrs by MTT assay
# Type: functional, cell-based
# conditions.used: MDA-MB-231, 48 h
pIC50: −log10 of the molar value.
Classification field: enter true (1) for pIC50 values not below 5, false (0) for values below it.

Is it the case that COc1cc(OC)c(-c2nc3cc(/C=C4\SC(=O)NC4=O)ccc3[nH]2)cc1OC has pIC50 reaching or exceeding 5?
false (0)

Hi, just wondering whether COc1cc(-c2nc3cc(/C=C4\SC(=O)NC4=O)ccc3[nH]2)cc(OC)c1OC shows pIC50 of 5 or higher.
true (1)

I'd appreciate it if you could say whether COc1cc(CN2C(=O)S/C(=C\c3ccc4[nH]c(-c5cc(OC)c(OC)c(OC)c5)nc4c3)C2=O)cc(OC)c1OC has pIC50 at least equal to 5.
true (1)

Hi team, for COc1ccc(-c2nc3cc(/C=C4\SC(=O)N(CC(=O)N5CCOCC5)C4=O)ccc3[nH]2)cc1OC , is the recorded pIC50 at or above 5?
false (0)

Determine whether measured pIC50 meets or exceeds 5 for COc1cc(-c2nc3cc(/C=C4\SC(=O)N(Cc5ccccc5)C4=O)ccc3[nH]2)cc(OC)c1OC
true (1)

Does the reported pIC50 for COc1cc(OC)c(-c2nc3cc(/C=C4\SC(=O)N(CC(=O)N5CCOCC5)C4=O)ccc3[nH]2)cc1OC fall at or above the 5 mark?
false (0)

Textbook exercise: given the entry COc1cc(OC)c(-c2nc3cc(/C=C4\SC(=O)N(CC(=O)N5CCCCC5)C4=O)ccc3[nH]2)cc1OC , state whether its pIC50 is greater than or equal to 5.
false (0)

For this molecule, is measured pIC50 5 or higher? COc1cc(-c2nc3cc(/C=C4\SC(=O)N(Cc5cccc(C)c5)C4=O)ccc3[nH]2)cc(OC)c1OC
true (1)

pIC50 >= 5 for COc1ccc(-c2nc3cc(/C=C4\SC(=O)N(Cc5cc(OC)c(OC)c(OC)c5)C4=O)ccc3[nH]2)cc1OC ?
false (0)
